# System: CHO K1 cells
# Protocol text: cells
# Format: cell-based, Chinese hamster
# Measurement setup: Cricetulus griseus; CHO cells, Ant-44 0.5 μM, 48 h; read-out: Ant44 potentiation assay EC50
Metric name: pEC50
Numbers only, as −log10 of the molar value.

CC(C)(C)CCN1CCN(C(CNCc2ccccc2)Cc2ccccc2)CC1Cc1ccccc1.Cl.Cl.Cl (centres unmarked) [Compound 9, trihydrochloride salt] : 6.12

Qu. Consider the molecule shown here: CC(C)CCN1CCN(C(CNCc2ccccc2)CC2CCCCC2)CC1CC(C)C.Cl.Cl.Cl (centres unmarked) [Compound 10, trihydrochloride salt] What is its recorded pEC50?
Ans. 7.22

###

# Test system: CHO-MG cells
# Protocol text: Cytotoxicity IC50 (MTS) in polyamine-transport-deficient CHO-MG cells
# Format: cell-based, Chinese hamster
# Measurement setup: Cricetulus griseus, 48 h
Metric name: IC50
Give the value; after it, write the unit.

Qu. For the record CC(C)CCN1CCN(C(CNCc2ccccc2)CC2CCCCC2)CC1CC(C)C.Cl.Cl.Cl (stereo not shown) [Compound 10, trihydrochloride salt] , what value of IC50 is listed for CHO-MG cells?
Ans. 8.93 µM

###

# Test system: L3.6pl human pancreatic cancer cells
# Protocol text: Cytotoxicity dose-response (MTS) in L3.6pl cells
# Format: cell-based
# Measurement setup: Homo sapiens; L3.6pl cells, 48 h; read-out: 48 h IC50
Metric name: IC50 (µM)
Give bare numbers, in µM.

Qu. # lookup: IC50 of CC(C)CCN1CCN(C(CNCc2ccccc2)CC2CCCCC2)CC1CC(C)C.Cl.Cl.Cl (stereo not shown) [Compound 10, trihydrochloride salt]
Ans. 3.48
